Tested on: PPARg:RXRa (NR concentration 180 nM, RXRa partner concentration 90 nM)
Assay Explanation: PBM binding z-score (relative to random genomic background probes); higher = stronger binding; sequences stand for … in GC…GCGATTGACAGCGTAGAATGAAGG
Reported Property: PBM binding z-score
One number for each entry.

Completed entries (count: 3):
{"Sequence Content": "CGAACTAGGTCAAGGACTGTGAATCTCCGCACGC", "Experimental Target": "PPARg:RXRa (NR concentration 180 nM, RXRa partner concentration 90 nM)", "Reported Property": "PBM binding z-score", "Assay Result": 7.06}
{"Sequence Content": "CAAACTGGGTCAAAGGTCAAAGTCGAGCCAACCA", "Experimental Target": "PPARg:RXRa (NR concentration 180 nM, RXRa partner concentration 90 nM)", "Reported Property": "PBM binding z-score", "Assay Result": 14.1}
{"Sequence Content": "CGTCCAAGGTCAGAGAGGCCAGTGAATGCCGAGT", "Experimental Target": "PPARg:RXRa (NR concentration 180 nM, RXRa partner concentration 90 nM)", "Reported Property": "PBM binding z-score", "Assay Result": 2.04}

Required: PBM binding z-score, one value per sequence below.
1. GCTACTAGGTCAACTGATGGTCAGCTAAAGCTCG
2. CCGACTGGGGCAAGGGTTACCATACTCAGTACGA
3. TTACCAAGGTGAGATGAGGTCGTTGATCCAACTC
4. AGAATGACGTTAAGATCAGGGAAACAGAATACAT
5. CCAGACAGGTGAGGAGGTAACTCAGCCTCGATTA

*A*
7.27
8.6
0.772
0.69
0.403

* * *

Test system: THRa homodimer (NR concentration 90 nM)
Assay Explanation: PBM binding z-score (relative to random genomic background probes); higher = stronger binding; sequences stand for … in GC…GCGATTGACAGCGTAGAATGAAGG
Kindly supply the reported PBM binding z-score values for the records listed here.
One number for each entry.

Provide the reported PBM binding z-score of each entry below, same order.
1. ATCCCTAGGTAACCAAGTTCAGTGAATGCCGAAC
2. GATACAGGGTCAAGGCCAGGGTACGCGTATTGAT
3. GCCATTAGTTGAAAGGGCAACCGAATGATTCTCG

*A*
[1.02, 1.51, -0.31]

* * *

Tested on: RARa:RXR (NR concentration 270 nM, RXRa partner concentration 90 nM)
Assay Explanation: PBM binding z-score (relative to random genomic background probes); higher = stronger binding; sequences stand for … in GC…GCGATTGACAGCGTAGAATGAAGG
Reported Property: PBM binding z-score
Give bare numbers.

{"Sequence Content": "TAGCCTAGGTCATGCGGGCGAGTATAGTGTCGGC", "Assay Result": 1.97}
{"Sequence Content": "CCTTACGGGCCAAGGTTATAGCACGGGTGGTACG", "Assay Result": 0.242}
{"Sequence Content": "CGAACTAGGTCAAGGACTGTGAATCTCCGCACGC", "Assay Result": 1.78}
{"Sequence Content": "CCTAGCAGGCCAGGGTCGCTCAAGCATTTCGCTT", "Assay Result": 1.84}
{"Sequence Content": "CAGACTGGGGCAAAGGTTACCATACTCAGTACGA", "Assay Result": 3.86}
{"Sequence Content": "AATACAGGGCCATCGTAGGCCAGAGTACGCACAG", "Assay Result": -0.00731}
{"Sequence Content": "AGAACGAAGGCACGCTGAGTTGATAGCAGAGTAG", "Assay Result": -0.468}
{"Sequence Content": "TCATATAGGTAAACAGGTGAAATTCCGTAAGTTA", "Assay Result": 1.67}
{"Sequence Content": "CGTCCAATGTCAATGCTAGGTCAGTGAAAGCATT", "Assay Result": 1.27}
{"Sequence Content": "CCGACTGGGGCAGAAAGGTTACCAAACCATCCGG", "Assay Result": 1.58}

Would you mind giving PBM binding z-score for every sequence in the list below?
1. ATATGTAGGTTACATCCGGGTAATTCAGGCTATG
2. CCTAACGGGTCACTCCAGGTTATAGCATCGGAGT
3. TCTCGGAGGACGCGAAGGTCAGAGCTTTCCAGAG

*A*
1: 1.19; 2: 2.86; 3: 1.61

Origin of measurements: the supplement of paper PMC6555819
